# Tested on: DU-145 prostate
# protocol.notes: NCI tumour cell line growth inhibition, 48 h
metric.name: TGI

(Q) Suppose we examine the compound CCc1nc2ccc(NCCN(C)C)c3c(=O)c4ccccc4n1c23 ; what TGI value has been reported?
(A) 3.4 µM

(Q) Moving on to COc1cc2cc(Oc3ccc(NC(=O)Nc4ccc(Cl)c(Cl)c4)cc3)c(C)nc2cc1OC
(A) 17.1 µM

(Q) Let us now turn to C#CCOc1ccc2ncnc(Nc3ccc(NC(=O)C=C)cc3)c2c1
(A) > 100 µM

(Q) Another compound to check: CC(=O)Oc1ccc(/C=C/C(=O)O[C@@H](C(=O)O)[C@@H](OC(=O)/C=C/c2ccc(OC(C)=O)c(OC(C)=O)c2)C(=O)O)cc1OC(C)=O
(A) > 100 µM

Continuing:
(Q) Which TGI reading was recorded for the compound Cc1cc(Cl)nc(N(CCCNc2ccnc3cc(Cl)ccc23)Cc2ccco2)n1 ?
(A) 14.7 µM

(Q) O=C1c2cn[nH]c2C(c2ccccc2)N1c1ccccc1 (centres undefined) ?
(A) > 10 µM

(Q) Next up: COC(=O)[C@H]1CCCN1C(=O)[C@H]1CCCN1C(=O)[C@H](Cc1c[nH]c2ccccc12)NC(=S)Nc1cc(C(F)(F)F)cc(C(F)(F)F)c1
(A) > 100 µM

(Q) Query CCCC(CCN)(CCN)[N+](=O)[O-] next
(A) > 100 µM

(Q) // query: CCOC(=O)Cc1nc2c(N)ncnc2n1C1OC(COC(C)=O)C(OC(C)=O)C1OC(C)=O (centres undefined)
(A) > 100 µM

---

# Tested on: K-562 leukemia
# protocol.notes: NCI tumour cell line growth inhibition, 48 h
metric.name: TGI

(Q) Looking for the measured TGI of C[C@]12CCC3[C@@H](CC[C@@H]4c5nonc5CC[C@]34C)C1CC[C@@H]2O (stereo partly specified) , can you help?
(A) > 100 µM

(Q) Next: CC1(C)CC(=O)C2=C(C1)OC1=C(CC(C)(C)CC1=O)C2c1ccccc1[N+](=O)[O-] (stereo unspecified)
(A) > 100 µM

(Q) For O=c1cnn(CCOCP(=O)(O)O)c(=O)[nH]1 then?
(A) > 100 µM

(Q) Also CCCC(CCN)(CCN)[N+](=O)[O-] ?
(A) > 100 µM

(Q) Try the compound CCOC(=O)C1(C)CCCCC(=O)N1 (stereo unspecified)
(A) > 100 µM

Continue with the compound presented below.
(Q) Dear colleague, I am looking for the recorded TGI of the following compound: CSc1ccc2c(c1)C(N1CCN(C)CC1)Cc1ccccc1S2 (stereo unspecified)
(A) 4.5 µM

---

The molecules listed here are annotated with their TGI.
# Tested on: SN12C renal
# protocol.notes: NCI tumour cell line growth inhibition, 48 h

(Q) GET /values?readout=TGI&item= CCOC(=O)c1cnc2c(C)cccc2c1Nc1ccc(C(C)=O)cc1
(A) > 100 µM

(Q) Entry COC(=O)c1ccc(NC(=O)Oc2ccc(N(CCCl)CCCl)cc2)cc1 please
(A) 94.1 µM

(Q) And CCc1nc2ccc(NCCN(C)C)c3c(=O)c4ccccc4n1c23 ?
(A) 10.6 µM

(Q) What would you report for CN1CSC(=S)N(Cc2ccccc2)C1 ?
(A) 35.7 µM

(Q) Now give it for COc1cc2c3c(n(C)c(=O)c2cc1OC)-c1ccc(C#N)cc1C3=O too.
(A) > 100 µM

(Q) Likewise for CC[C@H](C)[C@H](NC(=O)[C@H]1CCCCN1C)C(=O)N(C)[C@H](C[C@@H](OC(C)=O)c1nc(C(=O)N[C@@H](Cc2ccccc2)C[C@H](C)C(=O)O)cs1)C(C)C ?
(A) > 16.5 µM

(Q) One more molecule: CC1=C(C(=O)Nc2cc(F)c(F)cc2F)C(c2ccc([N+](=O)[O-])cc2)C(C(=O)Nc2cc(F)c(F)cc2F)=C(C)N1
(A) > 100 µM

(Q) Proceed to CN(Cc1cnc2nc(N)nc(N)c2n1)c1ccc(C(=O)NC(CCC(=O)O)C(=O)O)cc1Br (centres undefined)
(A) > 100 µM

// moving on: another record for TGI
(Q) Request the reported TGI associated with C[C@H]1S[C@H](c2c(Cl)cccc2Cl)N2Cc3ccccc3N=C12
(A) > 100 µM
